Test system: CD2F1 mice, L1210 leukemia ip, survival T/C
Experiment: NCI In Vivo Anticancer Drug Screen. Data for tumor model L1210 Leukemia (intraperitoneal) in CD2F1 (CDF1) mice
Settings: endpoint: mean survival time; dose: 50.0 mg/kg/injection; schedule: Q01DX009 (ip); vehicle: saline with Tween-80; higher = longer survival
Inconclusive results and toxic doses are left out.
Each entry below carries its reported T/C.

{"compound": "CN1CCC(COC(=O)C(O)(c2ccccc2)c2ccccc2)C1 (stereo not drawn)", "T/C": "100 % of control"}
{"compound": "COc1cc(C(C)=O)cc([N+](=O)[O-])c1O", "T/C": "102 % of control"}
{"compound": "C/C=C1/C(=O)Oc2ccccc21", "T/C": "101 % of control"}
{"compound": "CCc1ccc(CC)c(CC)c1CC", "T/C": "98 % of control"}
{"compound": "CN1C(=O)CN(CCN2CC(=O)N(c3ccccc3)C2=S)C1=S", "T/C": "93 % of control"}
{"compound": "CCCCOC(=O)c1cccc([N+](=O)[O-])c1", "T/C": "93 % of control"}
{"compound": "CCOC(=O)C#CC1CCCCC1", "T/C": "98 % of control"}
{"compound": "COc1cc(OC)c(NC(=O)Nc2ccc(Cl)c(C(F)(F)F)c2)cc1Cl", "T/C": "93 % of control"}
{"compound": "O=C(CNC(=O)Nc1cccc([N+](=O)[O-])c1)N/N=C/c1cc(Br)ccc1O", "T/C": "92 % of control"}
{"compound": "CC(C)(C)CC(C)(C)c1ccc(O)cc1O", "T/C": "103 % of control"}
{"compound": "CS(=O)(=O)c1cc(C(F)(F)F)cc([N+](=O)[O-])c1Cl", "T/C": "103 % of control"}
{"compound": "COc1cc2ccnc(/C=N\\NC(N)=S)c2cc1OC", "T/C": "96 % of control"}
{"compound": "CN(CSc1ccc(Cl)cc1)c1ccccc1", "T/C": "96 % of control"}
{"compound": "O=C1NC(O)c2ccccc2O1 (stereo not drawn)", "T/C": "98 % of control"}
{"compound": "Cc1cc([N+](=O)[O-])c(Cl)cc1NS(=O)(=O)c1ccccc1", "T/C": "103 % of control"}
{"compound": "CCCCCCCCCCCCCCCc1nnc(SC)s1", "T/C": "95 % of control"}
{"compound": "Cc1cc(C)[nH]c(=S)n1", "T/C": "100 % of control"}
{"compound": "c1ccc2cc(N=NNc3ccc4ccccc4c3)ccc2c1", "T/C": "94 % of control"}
{"compound": "Brc1ccc2c(c1)C(Br)c1ccccc1-2 (stereo not drawn)", "T/C": "105 % of control"}
{"compound": "CC(C)/C=C\\C=C\\C(C)C", "T/C": "96 % of control"}
{"compound": "C/C=C/CC1CCCCC1C (stereo not drawn)", "T/C": "96 % of control"}
{"compound": "Cl/C=C(\\Cl)CCl", "T/C": "96 % of control"}
{"compound": "CCC1(CC)C(=O)C=CNC1=O", "T/C": "100 % of control"}
{"compound": "O=S=Nc1ccc(S(=O)(=O)c2ccc(N=S=O)cc2)cc1", "T/C": "96 % of control"}
{"compound": "[O-][n+]1c(CN2CCCCC2)nc2cccc3c2c1-c1ccccc1-3", "T/C": "103 % of control"}
{"compound": "CC1(CO)C2CCC(CC2)C1CO (stereo not drawn)", "T/C": "102 % of control"}
{"compound": "CCc1ccc2ccccc2c1N", "T/C": "108 % of control"}
{"compound": "N#CSCc1ccc(Cl)cc1Cl", "T/C": "103 % of control"}

* * *

System: CD2F1 mice, L1210 leukemia ip, survival T/C
Test: NCI In Vivo Anticancer Drug Screen. Data for tumor model L1210 Leukemia (intraperitoneal) in CD2F1 (CDF1) mice
Conditions: endpoint: mean survival time; dose: 100.0 mg/kg/injection; schedule: Q01DX005 (ip); vehicle: water; higher = longer survival
Toxic doses and inconclusive results are not listed.
Here, each record is paired with measured T/C data.
value-type: T/C

{"compound": "O=c1nc2c(ncn2C2OC(CO)C(O)C2O)c(NCCc2ccccc2)[nH]1 (centres undefined)", "target-entity": "CD2F1 mice, L1210 leukemia ip, survival T/C", "value-type": "T/C", "result": "112 % of control"}
{"compound": "OCC1OC(c2nn(-c3ccccc3)[n+](-c3ccccc3)n2)C(O)C1O (centres undefined)", "target-entity": "CD2F1 mice, L1210 leukemia ip, survival T/C", "value-type": "T/C", "result": "106 % of control"}
{"compound": "[N-]=[N+]=NC1C(O)C(CO)OC1n1c(=O)[nH]c2c(N)ncnc21 (centres undefined)", "target-entity": "CD2F1 mice, L1210 leukemia ip, survival T/C", "value-type": "T/C", "result": "97 % of control"}
{"compound": "CCOC(=O)C(OCC)P(=O)(OCC)OCC (centres undefined)", "target-entity": "CD2F1 mice, L1210 leukemia ip, survival T/C", "value-type": "T/C", "result": "101 % of control"}

* * *

Tested on: CD2F1 mice, L1210 leukemia ip, survival T/C
Test: NCI In Vivo Anticancer Drug Screen. Data for tumor model L1210 Leukemia (intraperitoneal) in CD2F1 (CDF1) mice
Details: endpoint: mean survival time; dose: 200.0 mg/kg/injection; schedule: Q01DX009 (ip); vehicle: saline with Tween-80; higher = longer survival
Inconclusive results and toxic doses are left out.
Listing of recorded T/C by entry.

{"compound": "ClCC(Cl)CN(Cc1ccccc1)Cc1ccccc1 (stereo unspecified)", "target-entity": "CD2F1 mice, L1210 leukemia ip, survival T/C", "T/C": "104 % of control"}
{"compound": "NC(=O)NC(=O)c1cccc([N+](=O)[O-])c1", "target-entity": "CD2F1 mice, L1210 leukemia ip, survival T/C", "T/C": "97 % of control"}
{"compound": "Nc1nc(CCCCc2ccccc2)c(N=Nc2ccc(Cl)cc2)c(=O)[nH]1", "target-entity": "CD2F1 mice, L1210 leukemia ip, survival T/C", "T/C": "90 % of control"}
{"compound": "N#CCC(O)(/C=C/c1ccccc1)c1ccccc1 (stereo unspecified)", "target-entity": "CD2F1 mice, L1210 leukemia ip, survival T/C", "T/C": "91 % of control"}
{"compound": "O=C(Nc1ccc(Cl)cc1)Nc1ccccc1F", "target-entity": "CD2F1 mice, L1210 leukemia ip, survival T/C", "T/C": "103 % of control"}
{"compound": "O=C(CNC(=O)Nc1cccc([N+](=O)[O-])c1)NNC(=O)Nc1ccc(Cl)c([N+](=O)[O-])c1", "target-entity": "CD2F1 mice, L1210 leukemia ip, survival T/C", "T/C": "87 % of control"}
{"compound": "O=C(OCc1ccccc1)OC1C2COC(O2)C(OC(=O)OCc2ccccc2)C1O (stereo unspecified)", "target-entity": "CD2F1 mice, L1210 leukemia ip, survival T/C", "T/C": "95 % of control"}
{"compound": "COC(=O)C(I)C(OC)c1ccccc1 (stereo unspecified)", "target-entity": "CD2F1 mice, L1210 leukemia ip, survival T/C", "T/C": "100 % of control"}
{"compound": "Cc1nc2c(c(=O)[nH]1)C(c1ccccc1)C(C)(C)O2 (stereo unspecified)", "target-entity": "CD2F1 mice, L1210 leukemia ip, survival T/C", "T/C": "93 % of control"}
{"compound": "c1ccc2cc(N=NNc3ccc4ccccc4c3)ccc2c1", "target-entity": "CD2F1 mice, L1210 leukemia ip, survival T/C", "T/C": "100 % of control"}
{"compound": "O=C(Nc1cc(Cl)ccc1Cl)c1ccc(C(=O)Nc2cc(Cl)ccc2Cl)cc1", "target-entity": "CD2F1 mice, L1210 leukemia ip, survival T/C", "T/C": "95 % of control"}
{"compound": "CC(=O)Oc1cc2c(cc1C(C)C)CCC1C(C)(C#N)CCCC21C (stereo unspecified)", "target-entity": "CD2F1 mice, L1210 leukemia ip, survival T/C", "T/C": "95 % of control"}
{"compound": "CCC(C)NC(=O)Nc1ccccc1C(F)(F)F (stereo unspecified)", "target-entity": "CD2F1 mice, L1210 leukemia ip, survival T/C", "T/C": "88 % of control"}
{"compound": "O=c1ccc2ccc(O)cc2o1", "target-entity": "CD2F1 mice, L1210 leukemia ip, survival T/C", "T/C": "97 % of control"}
{"compound": "CC(=O)N1NC2C(=O)N(C3CCCCC3)CC2C1c1ccccc1 (stereo unspecified)", "target-entity": "CD2F1 mice, L1210 leukemia ip, survival T/C", "T/C": "100 % of control"}
{"compound": "[O-][n+]1c(CN2CCCCC2)nc2cccc3c2c1-c1ccccc1-3", "target-entity": "CD2F1 mice, L1210 leukemia ip, survival T/C", "T/C": "109 % of control"}
{"compound": "CCNC(=S)Nc1ccccc1", "target-entity": "CD2F1 mice, L1210 leukemia ip, survival T/C", "T/C": "111 % of control"}
{"compound": "COc1ccc(C=Nc2ccc(C)cc2)cc1", "target-entity": "CD2F1 mice, L1210 leukemia ip, survival T/C", "T/C": "98 % of control"}
{"compound": "O=C(O)CC1(c2ccccc2)OC(=O)c2ccccc21 (stereo unspecified)", "target-entity": "CD2F1 mice, L1210 leukemia ip, survival T/C", "T/C": "100 % of control"}
{"compound": "COc1cc(NC(=O)CC(C)=O)c(OC)cc1Cl", "target-entity": "CD2F1 mice, L1210 leukemia ip, survival T/C", "T/C": "94 % of control"}
{"compound": "C[Si](C)c1cccc(Cl)c1", "target-entity": "CD2F1 mice, L1210 leukemia ip, survival T/C", "T/C": "100 % of control"}
{"compound": "Cc1c(Cl)c(C)c(Cl)c(O)c1Cl", "target-entity": "CD2F1 mice, L1210 leukemia ip, survival T/C", "T/C": "100 % of control"}
{"compound": "O=C(O)/C=C/C(=O)NCc1ccccc1", "target-entity": "CD2F1 mice, L1210 leukemia ip, survival T/C", "T/C": "94 % of control"}
{"compound": "COc1ccccc1/C(C)=N\\NC(=O)c1ccccc1", "target-entity": "CD2F1 mice, L1210 leukemia ip, survival T/C", "T/C": "96 % of control"}
{"compound": "O=C(CNC(=O)Nc1cccc([N+](=O)[O-])c1)N/N=C/c1cc(Br)ccc1O", "target-entity": "CD2F1 mice, L1210 leukemia ip, survival T/C", "T/C": "88 % of control"}
{"compound": "CCCCC(C)(O)CC (stereo unspecified)", "target-entity": "CD2F1 mice, L1210 leukemia ip, survival T/C", "T/C": "95 % of control"}
